- tgt: Vascular endothelial growth factor receptor 2 (Homo sapiens)
- Sequence (P35968 whole entry): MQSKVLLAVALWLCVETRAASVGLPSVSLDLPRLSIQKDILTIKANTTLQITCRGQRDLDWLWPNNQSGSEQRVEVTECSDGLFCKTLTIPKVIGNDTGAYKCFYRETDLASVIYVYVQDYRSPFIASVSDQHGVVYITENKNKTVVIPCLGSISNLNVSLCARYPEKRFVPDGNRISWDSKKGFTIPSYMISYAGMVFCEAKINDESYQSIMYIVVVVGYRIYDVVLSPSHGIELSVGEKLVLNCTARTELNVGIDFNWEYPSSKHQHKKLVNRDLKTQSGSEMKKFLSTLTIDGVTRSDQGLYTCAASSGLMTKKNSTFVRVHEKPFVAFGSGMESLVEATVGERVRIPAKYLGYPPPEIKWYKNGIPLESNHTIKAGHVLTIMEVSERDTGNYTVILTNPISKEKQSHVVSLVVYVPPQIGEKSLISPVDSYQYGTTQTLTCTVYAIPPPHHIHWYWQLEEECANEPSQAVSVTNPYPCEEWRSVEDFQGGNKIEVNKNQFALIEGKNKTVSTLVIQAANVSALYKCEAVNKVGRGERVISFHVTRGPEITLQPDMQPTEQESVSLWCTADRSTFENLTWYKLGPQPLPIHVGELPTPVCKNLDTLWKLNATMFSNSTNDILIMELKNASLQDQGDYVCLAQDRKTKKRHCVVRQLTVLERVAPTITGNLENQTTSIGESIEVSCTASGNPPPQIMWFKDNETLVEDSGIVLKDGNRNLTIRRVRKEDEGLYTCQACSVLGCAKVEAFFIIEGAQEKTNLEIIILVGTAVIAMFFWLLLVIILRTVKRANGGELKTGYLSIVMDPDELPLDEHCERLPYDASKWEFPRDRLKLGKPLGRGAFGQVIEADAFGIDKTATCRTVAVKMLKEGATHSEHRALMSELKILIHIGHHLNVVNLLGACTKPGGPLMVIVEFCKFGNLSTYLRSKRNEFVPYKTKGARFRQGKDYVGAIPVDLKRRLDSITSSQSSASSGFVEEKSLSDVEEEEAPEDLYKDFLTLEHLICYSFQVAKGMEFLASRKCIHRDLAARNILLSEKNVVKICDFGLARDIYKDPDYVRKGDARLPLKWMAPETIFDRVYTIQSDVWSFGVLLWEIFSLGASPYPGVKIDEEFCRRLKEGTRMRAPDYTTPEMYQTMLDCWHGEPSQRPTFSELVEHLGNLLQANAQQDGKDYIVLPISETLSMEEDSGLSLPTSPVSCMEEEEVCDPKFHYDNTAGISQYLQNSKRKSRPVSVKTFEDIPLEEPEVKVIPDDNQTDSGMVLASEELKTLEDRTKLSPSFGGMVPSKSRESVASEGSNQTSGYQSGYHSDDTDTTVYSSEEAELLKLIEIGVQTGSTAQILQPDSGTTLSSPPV
- experiment_summary: VEGF-R Kinase Inhibition Assay
- cond: 25 °C
observation_type: IC50 (µM)
Number only, in µM; omit the unit.

// query Value wanted: IC50 (Vascular endothelial growth factor receptor 2 (Homo sapiens)) of entry COc1ccc(Cl)c(Nc2ncnc3cc(OCC4CCN(C)CC4)c(OC)cc23)c1
// result 0.67

----------
- tgt: Vascular endothelial growth factor receptor 1 (Homo sapiens, UniProt P17948)
- Sequence (P17948 whole entry): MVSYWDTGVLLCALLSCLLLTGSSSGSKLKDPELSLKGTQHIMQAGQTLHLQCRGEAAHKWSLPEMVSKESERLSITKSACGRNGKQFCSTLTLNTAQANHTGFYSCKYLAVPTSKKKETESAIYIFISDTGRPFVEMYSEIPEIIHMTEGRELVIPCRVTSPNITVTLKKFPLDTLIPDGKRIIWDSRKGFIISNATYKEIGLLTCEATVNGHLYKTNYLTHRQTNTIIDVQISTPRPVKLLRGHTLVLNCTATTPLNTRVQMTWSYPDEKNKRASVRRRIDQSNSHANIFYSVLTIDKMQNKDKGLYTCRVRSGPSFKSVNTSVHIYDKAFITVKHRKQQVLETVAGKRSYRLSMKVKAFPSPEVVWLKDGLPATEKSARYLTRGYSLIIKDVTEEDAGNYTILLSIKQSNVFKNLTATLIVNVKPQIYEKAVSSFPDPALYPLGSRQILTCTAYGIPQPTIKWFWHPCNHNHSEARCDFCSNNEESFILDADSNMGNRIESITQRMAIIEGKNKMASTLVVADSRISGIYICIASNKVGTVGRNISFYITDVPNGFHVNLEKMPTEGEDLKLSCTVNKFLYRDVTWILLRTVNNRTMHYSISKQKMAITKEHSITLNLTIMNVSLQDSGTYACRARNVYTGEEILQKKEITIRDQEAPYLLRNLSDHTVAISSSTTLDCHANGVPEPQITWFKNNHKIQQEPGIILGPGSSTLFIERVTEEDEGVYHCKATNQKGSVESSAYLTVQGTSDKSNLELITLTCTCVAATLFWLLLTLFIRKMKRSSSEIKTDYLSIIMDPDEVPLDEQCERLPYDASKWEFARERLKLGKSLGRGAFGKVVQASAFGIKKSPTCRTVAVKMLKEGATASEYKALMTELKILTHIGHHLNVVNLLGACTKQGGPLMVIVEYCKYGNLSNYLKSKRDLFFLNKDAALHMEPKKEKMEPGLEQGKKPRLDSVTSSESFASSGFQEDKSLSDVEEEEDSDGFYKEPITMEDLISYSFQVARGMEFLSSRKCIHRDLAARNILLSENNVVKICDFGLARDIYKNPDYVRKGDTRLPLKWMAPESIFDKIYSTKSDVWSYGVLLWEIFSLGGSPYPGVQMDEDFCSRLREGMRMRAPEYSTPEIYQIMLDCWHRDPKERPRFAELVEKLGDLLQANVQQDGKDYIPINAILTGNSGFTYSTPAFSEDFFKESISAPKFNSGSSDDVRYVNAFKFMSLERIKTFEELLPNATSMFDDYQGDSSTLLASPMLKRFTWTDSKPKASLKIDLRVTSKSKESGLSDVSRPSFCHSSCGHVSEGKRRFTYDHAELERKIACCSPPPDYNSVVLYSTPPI
pIC50: −log10 of the molar value.
observation_type: pIC50

// query Value wanted: pIC50 (Vascular endothelial growth factor receptor 1 (Homo sapiens, UniProt P17948)) of entry COc1cc2c(Nc3c(Cl)ccc4c3OCO4)ncnc2cc1OCc1ccnc(C#N)c1
// result < 4.00
